System: 855422-203-R-J1-PDC complex spheroid viability;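 also: spheroids exposed to compounds for seven days before readout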
Assay: Anticancer human tumor 855422-203-R-J1-PDC patient-derived bladder carcinoma cell line growth inhibition [POLQ]
Details: second compound 0.0316 µM; first compound 10 µM; stronger effect = lower value
The label T is reserved for viability, T/C strictly under 90%; F covers values equal to or above it.

Molecule	Class Name
C=CC(=O)N1CCN(c2nc(=O)n(-c3c(C)ccnc3C(C)C)c3nc(-c4c(O)cccc4F)c(F)cc23)C(C)C1 (stereo not drawn) + COC1C(OC(N)=O)C(O)C(Oc2ccc3c(O)c(NC(=O)c4ccc(O)c(CC=C(C)C)c4)c(=O)oc3c2C)OC1(C)C	F
C=CC(=O)N1CCN(c2nc(=O)n(-c3c(C)ccnc3C(C)C)c3nc(-c4c(O)cccc4F)c(F)cc23)C(C)C1 (stereo not drawn) + Cc1cccc(N(C)C(=O)C2C(O)CCN2c2nc(C)cc(C(F)(F)F)c2C#N)c1	F
COc1ccc([C@@H](O)c2cc(-c3ncnc4cc(N5CCOCC5)ccc34)c(F)cc2Cl)nn1 + COC1C(OC(N)=O)C(O)C(Oc2ccc3c(O)c(NC(=O)c4ccc(O)c(CC=C(C)C)c4)c(=O)oc3c2C)OC1(C)C	T
COc1ccc([C@@H](O)c2cc(-c3ncnc4cc(N5CCOCC5)ccc34)c(F)cc2Cl)nn1 + Nc1ccc(C#CCN(C(=O)Cc2ncc(C(F)(F)F)cc2C(F)(F)F)c2ccc(F)cc2)nn1	T
O=C(c1cc(Cc2n[nH]c(=O)c3ccccc23)ccc1F)N1CCN(C(=O)C2CC2)CC1 + Nc1ccc(C#CCN(C(=O)Cc2ncc(C(F)(F)F)cc2C(F)(F)F)c2ccc(F)cc2)nn1	F
O=C(c1cc(Cc2n[nH]c(=O)c3ccccc23)ccc1F)N1CCN(C(=O)C2CC2)CC1 + Cc1cccc(N(C)C(=O)C2C(O)CCN2c2nc(C)cc(C(F)(F)F)c2C#N)c1	T
CC1COCCN1c1cc(C2(O)CC3CCC(C2)O3)c2cnn(-c3ccn[nH]3)c2n1 (stereo not drawn) + COC1C(OC(N)=O)C(O)C(Oc2ccc3c(O)c(NC(=O)c4ccc(O)c(CC=C(C)C)c4)c(=O)oc3c2C)OC1(C)C	T
CNCc1ccc(-c2[nH]c3cc(F)cc4c3c2CCNC4=O)cc1 + Cc1cccc(N(C)C(=O)C2C(O)CCN2c2nc(C)cc(C(F)(F)F)c2C#N)c1	F
O=C(c1cc(Cc2n[nH]c(=O)c3ccccc23)ccc1F)N1CCN(C(=O)C2CC2)CC1 + COC1C(OC(N)=O)C(O)C(Oc2ccc3c(O)c(NC(=O)c4ccc(O)c(CC=C(C)C)c4)c(=O)oc3c2C)OC1(C)C	T
Nc1ccn(C2OC(CO)C(O)C2(F)F)c(=O)n1 (stereo not drawn) + COC1C(OC(N)=O)C(O)C(Oc2ccc3c(O)c(NC(=O)c4ccc(O)c(CC=C(C)C)c4)c(=O)oc3c2C)OC1(C)C	T
CC(C)n1c(=O)n(C)c2cnc3cc(F)c(-c4ccc(OCCCN5CCCCC5)nc4)cc3c21 + COC1C(OC(N)=O)C(O)C(Oc2ccc3c(O)c(NC(=O)c4ccc(O)c(CC=C(C)C)c4)c(=O)oc3c2C)OC1(C)C	T
COc1cc2cc(C(=O)CCC(=O)O)sc2cc1OC + Cc1cccc(N(C)C(=O)C2C(O)CCN2c2nc(C)cc(C(F)(F)F)c2C#N)c1	F
COc1cc2cc(C(=O)CCC(=O)O)sc2cc1OC + Nc1ccc(C#CCN(C(=O)Cc2ncc(C(F)(F)F)cc2C(F)(F)F)c2ccc(F)cc2)nn1	F
